# targetEntity: human PF4 (Homo sapiens)
# Construct: PF4 is a 70 amino acid, lysine-rich 7.8 kDa platelet-specific protein; made in house; host or cells: Escherichia coli BL21DE3 pLysS (pT7-7) and/or Drosophila S2 cells
# testProtocol: Inhibition of PF4 tetramer formation (BS3 cross-linking, SDS-PAGE)
# Type: biochemical
# conditionNotes: 1 μM inhibitor; read-out: % inhibition of PF4 tetramer formation at single concentration of inhibitor
Assign Yes whenever inhibition at 1 µM does not fall below 20%; assign No whenever it does.

Enquiry: Check if inhibition at 1 µM >= 20% (inclusive). Item: CCOC(=O)CC(=O)C1C(=O)c2ccc(S(=O)(=O)c3ccc4c(c3)C(=O)C(C(=O)CC(=O)OCC)C4=O)cc2C1=O (stereo not drawn)
Return: Yes

Enquiry: Check if inhibition at 1 µM >= 20% (inclusive). Item: CS(=O)(=O)N1CCC(NC(=O)C2C(=O)c3ccc(C(=O)c4ccc5c(c4)C(=O)C(C(=O)NC4CCN(S(C)(=O)=O)CC4)C5=O)cc3C2=O)CC1 (stereo not drawn)
Return: Yes

Enquiry: Check if inhibition at 1 µM >= 20% (inclusive). Item: CC(C(=O)C1C(=O)c2ccc(S(=O)(=O)c3ccc4c(c3)C(=O)C(C(=O)C(C)c3ccc(F)cc3)C4=O)cc2C1=O)c1ccc(F)cc1 (stereo not drawn)
Return: No

Enquiry: Check if inhibition at 1 µM >= 20% (inclusive). Item: CC(=O)OC[C@H]1O[C@@H](OC(C)=O)[C@H](NC(=O)C2C(=O)c3ccc(Oc4ccc5c(c4)C(=O)C(C(=O)N[C@H]4[C@H](OC(C)=O)O[C@H](COC(C)=O)[C@@H](OC(C)=O)[C@@H]4OC(C)=O)C5=O)cc3C2=O)[C@@H](OC(C)=O)[C@@H]1OC(C)=O (stereo partly drawn)
Return: Yes

Enquiry: Check if inhibition at 1 µM >= 20% (inclusive). Item: O=C1c2ccc(Oc3ccc4c(c3)C(=O)C(C(=O)[C@@H]3C[C@H]3C(=O)O)C4=O)cc2C(=O)C1C(=O)[C@@H]1C[C@H]1C(=O)O (stereo partly drawn)
Return: Yes

Enquiry: Check if inhibition at 1 µM >= 20% (inclusive). Item: Cc1ccccc1C(=O)CCC(=O)C1C(=O)c2ccc(Oc3ccc4c(c3)C(=O)C(C(=O)CCC(=O)c3ccccc3C)C4=O)cc2C1=O (stereo not drawn)
Return: No

Enquiry: Check if inhibition at 1 µM >= 20% (inclusive). Item: CO[C@@H](C)C(=O)C1C(=O)c2ccc(S(=O)(=O)c3ccc4c(c3)C(=O)C(C(=O)[C@@H](C)OC)C4=O)cc2C1=O (stereo partly drawn)
Return: Yes

Enquiry: Check if inhibition at 1 µM >= 20% (inclusive). Item: CSCCC(=O)C1C(=O)c2ccc(C(=O)c3ccc4c(c3)C(=O)C(C(=O)CCSC)C4=O)cc2C1=O (stereo not drawn)
Return: Yes

Enquiry: Check if inhibition at 1 µM >= 20% (inclusive). Item: O=C(Cc1cccc(F)c1F)C1C(=O)c2ccc(Oc3ccc4c(c3)C(=O)C(C(=O)Cc3cccc(F)c3F)C4=O)cc2C1=O (stereo not drawn)
Return: No

Enquiry: Check if inhibition at 1 µM >= 20% (inclusive). Item: CC(C)(C)OC(=O)NCC(=O)C1C(=O)c2ccc(C#Cc3ccc4c(c3)C(=O)C(C(=O)CNC(=O)OC(C)(C)C)C4=O)cc2C1=O (stereo not drawn)
Return: No

Enquiry: Check if inhibition at 1 µM >= 20% (inclusive). Item: O=C(c1ccc2c(c1)C(=O)C(C(=O)NCC1CCOC1)C2=O)c1ccc2c(c1)C(=O)C(C(=O)NCC1CCOC1)C2=O (stereo not drawn)
Return: Yes

Enquiry: Check if inhibition at 1 µM >= 20% (inclusive). Item: CC(C)[C@@H](N)C(=O)C1C(=O)c2ccc(S(=O)(=O)c3ccc4c(c3)C(=O)C(C(=O)[C@H](N)C(C)C)C4=O)cc2C1=O (stereo partly drawn)
Return: Yes

Enquiry: Check if inhibition at 1 µM >= 20% (inclusive). Item: CC(C)(C)OC(=O)N1CC[C@@H](C(=O)C2C(=O)c3ccc(S(=O)(=O)c4ccc5c(c4)C(=O)C(C(=O)[C@@H]4CCN(C(=O)OC(C)(C)C)C4)C5=O)cc3C2=O)C1 (stereo partly drawn)
Return: Yes

Enquiry: Check if inhibition at 1 µM >= 20% (inclusive). Item: O=C(O)CCC(=O)C1C(=O)c2ccc(Oc3ccc4c(c3)C(=O)C(C(=O)CCC(=O)O)C4=O)cc2C1=O (stereo not drawn)
Return: Yes

Enquiry: Check if inhibition at 1 µM >= 20% (inclusive). Item: O=C(O)CC(=O)C1C(=O)c2ccc(S(=O)(=O)c3ccc4c(c3)C(=O)C(C(=O)CC(=O)O)C4=O)cc2C1=O (stereo not drawn)
Return: Yes

Enquiry: Check if inhibition at 1 µM >= 20% (inclusive). Item: COCCOCCNC(=O)C1C(=O)c2ccc(S(=O)(=O)c3ccc4c(c3)C(=O)C(C(=O)NCCOCCOC)C4=O)cc2C1=O (stereo not drawn)
Return: Yes

Enquiry: Check if inhibition at 1 µM >= 20% (inclusive). Item: COCC(=O)C1C(=O)c2ccc(C(=O)c3ccc4c(c3)C(=O)C(C(=O)COC)C4=O)cc2C1=O (stereo not drawn)
Return: Yes

Enquiry: Check if inhibition at 1 µM >= 20% (inclusive). Item: NCC(=O)C1C(=O)c2ccc(Oc3ccc4c(c3)C(=O)C(C(=O)CN)C4=O)cc2C1=O (stereo not drawn)
Return: No

Enquiry: Check if inhibition at 1 µM >= 20% (inclusive). Item: O=C(c1ccc2c(c1)C(=O)C(C(=O)C1CCCCC1)C2=O)c1ccc2c(c1)C(=O)C(C(=O)C1CCCCC1)C2=O (stereo not drawn)
Return: No

Enquiry: Check if inhibition at 1 µM >= 20% (inclusive). Item: CSCC(=O)C1C(=O)c2ccc(Oc3ccc4c(c3)C(=O)C(C(=O)CSC)C4=O)cc2C1=O (stereo not drawn)
Return: Yes

Enquiry: Check if inhibition at 1 µM >= 20% (inclusive). Item: CC[C@H](C)[C@H](NC(=O)C1C(=O)c2ccc(Oc3ccc4c(c3)C(=O)C(C(=O)N[C@H](C(=O)OC)[C@@H](C)CC)C4=O)cc2C1=O)C(=O)OC (stereo partly drawn)
Return: Yes

Enquiry: Check if inhibition at 1 µM >= 20% (inclusive). Item: O=C(c1ccc2c(c1)C(=O)C(C(=S)NC1CC1)C2=O)c1ccc2c(c1)C(=O)C(C(=S)NC1CC1)C2=O (stereo not drawn)
Return: No

###

# targetEntity: human PF4 (Homo sapiens, UniProt P02776)
# Construct: PF4 is a 70 amino acid, lysine-rich 7.8 kDa platelet-specific protein; made in house; host or cells: Escherichia coli BL21DE3 pLysS (pT7-7) and/or Drosophila S2 cells
# Sequence (P02776 32-101): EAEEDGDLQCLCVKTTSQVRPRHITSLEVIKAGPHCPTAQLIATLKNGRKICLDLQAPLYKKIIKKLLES
# testProtocol: Inhibition of PF4 tetramer formation (BS3 cross-linking, SDS-PAGE)
# Type: biochemical
# conditionNotes: 1 μM inhibitor; read-out: % inhibition of PF4 tetramer formation at single concentration of inhibitor
Assign yes (1) whenever inhibition at 1 µM does not fall below 10%; assign no (0) whenever it does.

Enquiry: Check if inhibition at 1 µM >= 10% (inclusive). Item: COCCOCCN(CC(=O)C1C(=O)c2ccc(S(=O)(=O)c3ccc4c(c3)C(=O)C(C(=O)CN(CCOCCOC)C(=O)OC(C)(C)C)C4=O)cc2C1=O)C(=O)OC(C)(C)C (centres unmarked) [Example 392]
Return: no (0)

Enquiry: Check if inhibition at 1 µM >= 10% (inclusive). Item: CSCCC(=O)C1C(=O)c2ccc(Oc3ccc4c(c3)C(=O)C(C(=O)CCSC)C4=O)cc2C1=O (centres unmarked) [Example 276]
Return: yes (1)

Enquiry: Check if inhibition at 1 µM >= 10% (inclusive). Item: CC(C)(C)OC(=O)N1CCOC(C(=O)C2C(=O)c3ccc(C(=O)c4ccc5c(c4)C(=O)C(C(=O)C4CN(C(=O)OC(C)(C)C)CCO4)C5=O)cc3C2=O)C1 (centres unmarked) [Example 240]
Return: yes (1)

Enquiry: Check if inhibition at 1 µM >= 10% (inclusive). Item: CCNC(=O)C1C(=O)c2ccc(S(=O)(=O)c3ccc4c(c3)C(=O)C(C(=O)NCC)C4=O)cc2C1=O (centres unmarked) [Example 336]
Return: yes (1)

Enquiry: Check if inhibition at 1 µM >= 10% (inclusive). Item: CC(=O)C1C(=O)c2cc(S(=O)(=O)c3cnc4c(c3)C(=O)C(C(C)=O)C4=O)cnc2C1=O (centres unmarked) [Example 301]
Return: yes (1)

Enquiry: Check if inhibition at 1 µM >= 10% (inclusive). Item: O=C(NC1CCCC1)C1C(=O)c2ccc(S(=O)(=O)c3ccc4c(c3)C(=O)C(C(=O)NC3CCCC3)C4=O)cc2C1=O (centres unmarked) [Example 294]
Return: yes (1)

Enquiry: Check if inhibition at 1 µM >= 10% (inclusive). Item: CC(C)(C)OC(=O)N1CC[C@H](C(=O)C2C(=O)c3ccc(S(=O)(=O)c4ccc5c(c4)C(=O)C(C(=O)[C@H]4CCN(C(=O)OC(C)(C)C)C4)C5=O)cc3C2=O)C1 (some centres unmarked) [Example 374]
Return: yes (1)

Enquiry: Check if inhibition at 1 µM >= 10% (inclusive). Item: CN(CC(=O)C1C(=O)c2ccc(Oc3ccc4c(c3)C(=O)C(C(=O)CN(C)C(=O)OC(C)(C)C)C4=O)cc2C1=O)C(=O)OC(C)(C)C (centres unmarked) [Example 263]
Return: yes (1)

Enquiry: Check if inhibition at 1 µM >= 10% (inclusive). Item: COCCOCCNCC(=O)C1C(=O)c2ccc(Oc3ccc4c(c3)C(=O)C(C(=O)CNCCOCCOC)C4=O)cc2C1=O (centres unmarked) [Example 394]
Return: no (0)

Enquiry: Check if inhibition at 1 µM >= 10% (inclusive). Item: O=C1c2ccc(S(=O)(=O)c3ccc4c(c3)C(=O)C(C(=O)[C@H]3CCCN3)C4=O)cc2C(=O)C1C(=O)[C@@H]1CCNC1 (some centres unmarked) [Example 350]
Return: yes (1)

Enquiry: Check if inhibition at 1 µM >= 10% (inclusive). Item: CC[C@H](C)[C@H](NC(=O)C1C(=O)c2ccc(C(=O)c3ccc4c(c3)C(=O)C(C(=O)N[C@H](C(=O)OC)[C@@H](C)CC)C4=O)cc2C1=O)C(=O)OC (some centres unmarked) [Example 332]
Return: no (0)

Enquiry: Check if inhibition at 1 µM >= 10% (inclusive). Item: O=C(c1ccc2c(c1)C(=O)C(C(=O)Cc1cccnc1)C2=O)c1ccc2c(c1)C(=O)C(C(=O)Cc1cccnc1)C2=O (centres unmarked) [Example 238]
Return: no (0)

Enquiry: Check if inhibition at 1 µM >= 10% (inclusive). Item: COCC(=O)C1C(=O)c2ccc(Oc3ccc4c(c3)C(=O)C(C(=O)COC)C4=O)cc2C1=O (centres unmarked) [Example 249]
Return: yes (1)

Enquiry: Check if inhibition at 1 µM >= 10% (inclusive). Item: CCNC(=O)C1C(=O)c2ccc(C(=O)c3ccc4c(c3)C(=O)C(C(=O)NCC)C4=O)cc2C1=O (centres unmarked) [Example 335]
Return: yes (1)
